A collection of compounds and their measured viability at 500 µM
Tested on: A549 cells
MEASUREMENT NOTES: Cytotoxicity against A549 cells, Alamar Blue
Assay type: cell-based
STUDY CONDITIONS: Homo sapiens, A549, 65 h; Supplementary Table 1; compound 0.5 mM; percentage of controls (n=1)
API: value field is a number in %; no unit string.

Record CN1CCN(C)C1=O [compound 35, 1,3‐dimethylimidazolidin‐2‐one] , field viability at 500 µM: 92.7

// CC(=O)Nc1ccc2c(c1)CCC2 [compound 400, N1‐(2,3‐dihydro‐1H‐inden‐5‐yl)acetamide] : viability at 500 µM value = 99.3

meta.source: paper PMC3199943
